Below are IC50 measurements against SYK kinase (Homo sapiens) drawn from the literature.
quantity.kind: IC50 (nM)

# compound.smiles, unit.annotation, IC50
records = [
    ("CNc1ccc(-c2cc3nccnc3c(OC[C@@H]3CN(C(=O)[C@H]4CCCO4)CCO3)n2)cc1", "nM", 94),
    ("Cc1cc(-c2cc3nccnc3c(OC[C@@H]3CN(C(=O)[C@@H](C)O)CCO3)n2)ccc1N(C)C", "nM", 51),
    ("CN(C)c1ccc(-c2cc3nccnc3c(OC[C@@H]3CN(S(C)(=O)=O)CCO3)n2)cc1F", "nM", 32),
]

P: N[C@H]1CCCC[C@H]1Nc1cc2cn[nH]c(=O)c2c(Nc2ccc3ncccc3c2)n1
Q: COc1c(NC(=O)Nc2ccc(Oc3ccnc(NCc4ccccn4)n3)c3ccccc23)cc(C(C)(C)C)cc1P(C)(C)=O
Select one. Lower IC50: P or Q Kindly give the label for the entry you pick.
P

---

pIC50: −log10 of the molar value.
Endpoint summary: pIC50, system: SYK kinase (Homo sapiens, UniProt P43405), multiple sources combined.

Example results:
# molecule, recorded.result
data = [
    ("CCc1cc(-c2nc(N[C@@H]3CCOC[C@@H]3N)c(F)c3c2C(=O)NC3)sn1", 8.40),
    ("CN(CCCO)c1nccc(Oc2ccc(NC(=O)Nc3cc(C(C)(C)C)nn3-c3ccc(P(C)(C)=O)cc3)c3ccccc23)n1", "< 6.00"),
    ("COc1cc(-c2cc3nccc(-c4cc(O)cc(C(=O)NCCN)c4)c3o2)cc(OC)c1OC", "> 6.52"),
]

Now turn to the next molecule.
Recorded pIC50 for CC(c1ccccc1)n1cc(Nc2nc(-c3ccoc3)nc3cn[nH]c23)cn1 (stereo not shown) , please?
6.00 to 7.00

---

pIC50 for SYK kinase (Homo sapiens, UniProt P43405) - collated from the literature.
pIC50: −log10 of the molar value.
quantity.kind: pIC50

1: CN(C)c1ccc(-c2cc3nccnc3c(OC[C@@H]3CN(S(=O)(=O)C4CC4)CCO3)n2)cc1
2: C[C@H]1COCCN1c1ccc(Nc2cc3c(F)c(-c4cc[nH]n4)ccc3n(C)c2=O)nc1
3: CC(C)(O)Cc1ccc(-c2cc3nccnc3c(OC[C@@H]3CN(S(C)(=O)=O)CCO3)n2)cc1
// TODO: order the 3 compounds above by pIC50, descending Sort and list the labels as requested.
1, 3, 2

1: COc1cc(Nc2nccc(Oc3ccc(NC(=O)Nc4cc(C(F)(F)C(F)(F)F)nn4-c4ccc(C)cc4)c4ccccc34)n2)cc(C(=O)NCCN2CCOCC2)c1
2: Cc1c[nH]c2c(Nc3nc(N[C@@H]4CCCC[C@@H]4N)cc4cn[nH]c(=O)c34)cccc12
Kindly compare 1 with 2 and tell me which has the lower pIC50 figure. I would appreciate it if you answered with the label of your choice.
1

---

pIC50: −log10 of the molar value.
Field pIC50: reported value for SYK kinase (Homo sapiens, UniProt P43405); entries drawn from several documents.

Example cases with answers are listed next.
# compound, pIC50
measured = [
    ("N[C@H]1CCCC[C@H]1Nc1cc2cn[nH]c(=O)c2c(Nc2cnc3ccccc3c2)n1", 8.27),
    ("CC(C)(O)C1CCN(c2ccc(-c3cc4nccnc4c(OC[C@@H]4CN(S(C)(=O)=O)CCO4)n3)cc2)CC1", 7.80),
]

Lookup: pIC50 / SYK kinase (Homo sapiens, UniProt P43405) / `C#CC(C)(C)c1cc(NC(=O)Nc2ccc(Oc3ccnc(Nc4cc(OC)cc(OCCOCCOCCOC)c4)n3)c3ccccc23)n(-c2ccc(C)cc2)n1`
7.21

---

pIC50: −log10 of the molar value.
Listing of pIC50 toward SYK kinase (Homo sapiens), each taken from a published source.

# compound.smiles, test.target, recorded.result
records = [
    ("COc1cc(Nc2nccc(Oc3ccc(NC(=O)Nc4cc(C(C)C)nn4-c4cccc(CP(C)(C)=O)c4)c4ccccc34)n2)cc(C(=O)NCCN2CCOCC2)c1", "SYK kinase (Homo sapiens)", 8.52),
    ("COc1ccc(Nc2nc(C3CC3)nc3cn[nH]c23)cc1OC", "SYK kinase (Homo sapiens)", "7.00 to 8.00"),
    ("Cc1ccnc(Nc2cccc(-c3cnc(-c4cccnc4)s3)n2)c1", "SYK kinase (Homo sapiens)", "> 6.00"),
]

Continue with the next compound.
Lab note: need pIC50 with SYK kinase (Homo sapiens) for entry `CC1(C)C(=O)Nc2cc(Nc3nc4c(N5C[C@@H](O)C[C@@H]5c5ccccc5)nccn4n3)ccc21` , please look it up.
6.52 to 7.00

---

We begin with pIC50 values for SYK kinase (Homo sapiens, UniProt P43405), as collected from the published literature.
pIC50: −log10 of the molar value.

# compound.smiles, quantity.kind, recorded.result
data = [
    ("CN(CCN(C)c1ncc(C(=O)NO)cn1)c1ccc(Nc2nc(-c3ccc4cn[nH]c4c3)cn3ccnc23)cc1", "pIC50", "> 7.30"),
]

# get_value(readout='pIC50', item= `CS(=O)(=O)c1ccc2nc(Nc3cnn(CCO)c3)c3[nH]ncc3c2c1` )
7.00 to 8.00

Looking for the measured pIC50 of `Fc1cccc(Nc2nccc(-c3nccs3)n2)c1` , can you help?
5.70 to 6.30

Report pIC50 for `COCCCn1cc(Nc2nc(-c3ccc4cn[nH]c4c3)nc3cn[nH]c23)cn1` please.
7.00 to 8.00

Entry `COc1cc(-c2cc3nccc(-c4ccnn4C)c3o2)cc(OC)c1OC` : reported pIC50 = ?
5.52 to 6.52

What measured pIC50 goes with `c1coc(-c2nc(Nc3cnn(C4CCOCC4)c3)c3[nH]ncc3n2)c1` ?
7.00 to 8.00

# get_value(readout='pIC50', item= `CC(=O)N1CCN(c2ccc(-c3cc4nccnc4c(O[C@@H]4CCCOC4)n3)cc2)CC1` )
7.04

Request the reported pIC50 associated with `Cc1cccc(Nc2nc3c(NCCCN4CCOCC4)nccn3n2)c1`
4.30 to 5.52

For the compound `CS(=O)(=O)c1ccc(-c2nnc3c4cc[nH]c4ncn23)cc1` , what pIC50 is on record?
< 5.00

Requested read-out: pIC50. Entry: `FC(F)(F)Cn1cc(Nc2nc(-c3ccco3)nc3cn[nH]c23)cn1`
7.00 to 8.00

Requested field: pIC50. Item: `Nc1cccc(-c2cnc3[nH]cc(C(=O)c4cc(O)ccc4F)c3c2)c1`
≥ 5.00

Which pIC50 reading was recorded for the compound `CC(=O)N1CCO[C@H](COc2nc(-c3ccc(N(C)C)c(C)c3)cc3nccnc23)C1` ?
7.52

Look up pIC50: `Cn1c(=O)c(Nc2ccc(S(=O)(=O)N3CCCCC3)cc2)nc2ccc(-c3cn[nH]c3)cc21`
7.40

---

Published IC50 for SYK kinase (Homo sapiens, UniProt P43405), assembled from different documents, is shown next.

Below, 3 compounds whose answers are already recorded.
# compound, quantity.kind, recorded.result
measured = [
    ("CC1(C)C(=O)Nc2cc(Nc3nc4c(N5CCC(CO)C5)nccn4n3)ccc21 (centres unmarked)", "IC50", "3000 to 50000 nM"),
    ("c1ccc(-c2ccccc2-c2nccn3nc(Nc4cccc(N5CCOCC5)c4)nc23)cc1", "IC50", "300 to 3000 nM"),
    ("CN1CCC(n2cc(Nc3nc(-c4cocn4)nc4cn[nH]c34)cn2)CC1", "IC50", "100 to 1000 nM"),
]

Any idea what IC50 was measured for `O=C(C(F)F)N1CCO[C@H](COc2nc(-c3ccc(N4CCOCC4)c(F)c3)cc3nccnc23)C1` ?
1 to 100 nM

So what's the measured IC50 for this one? `CC(=O)N1CCC(c2ccc(-c3cc4nccnc4c(OC[C@@H]4CN(S(C)(=O)=O)CCO4)n3)cc2)CC1`
27 nM

Request the reported IC50 associated with `COc1ccc(-c2cc3nccc(-c4ccc(OC)c(OC)c4OC)c3o2)c(OC)c1OC`
300 to 3000 nM

What does the data say about its IC50? Entry: `CC1(C)C(=O)Nc2cc(Nc3nc4c(N5CCCC6(COC6)C5)nccn4n3)ccc21`
< 100 nM

---

Listed below are compounds with IC50 for UniProtKB P43405, each taken from published literature.

Solved entries (count: 2):
# compound, recorded.result
rows = [
    ("CC1(C)NC(=O)Nc2cc(Nc3nc4c(N5CCC6(CC5)CNC(=O)O6)nccn4n3)ccc21", "< 0.1 µM"),
    ("Cc1ccc(-n2nc(C(C)(C)C)cc2NC(=O)Nc2ccc(Oc3ccnc(Nc4ccc5c(c4)OCO5)n3)c3ccccc23)cc1", "0.671 µM"),
]

Form field - read-out: IC50; system: UniProtKB P43405; submitted item: CN1CCN2c3ccc(Nc4ncc(C(N)=O)c(NC5CC5)n4)cc3C(=O)CC2C1 (stereo not shown)
< 0.05 µM

Tell me reported IC50 for `CC(C)[C@@H](CO)n1c(=O)[nH]c2ncc(-c3cccc4ncccc34)nc21` , tested with UniProtKB P43405.
> 30 µM
